Source listed as patent US9085555B2.

Test target: Factor D (Homo sapiens (Human))
Sequence (P00746 26-253): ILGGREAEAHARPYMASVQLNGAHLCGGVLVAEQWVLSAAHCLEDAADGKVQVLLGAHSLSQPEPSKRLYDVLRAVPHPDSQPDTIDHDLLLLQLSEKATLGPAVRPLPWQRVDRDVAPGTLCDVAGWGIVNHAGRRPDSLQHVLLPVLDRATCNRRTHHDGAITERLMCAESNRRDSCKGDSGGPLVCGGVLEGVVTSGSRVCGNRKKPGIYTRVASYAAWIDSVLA
Experimental protocol: biochemical
Format: biochemical
Cond: read-out: IC50
Property name: IC50 (nM)
Quick note: give the figure in nM, leave out the unit.

Some compounds with known IC50 results, for comparison:
CC(=O)c1cn(CC(=O)N2[C@@H]3C[C@@H]3C[C@H]2C(=O)NCc2cccc(Cl)c2F)c2ccc(OCc3ncccn3)cc12 = 6
COC(=O)c1ccc2c(C(C)=O)cn(CC(=O)N3C[C@](C)(F)C[C@H]3C(=O)NCc3cccc(Cl)c3F)c2c1 = 363
COc1ccc2c(C(C)=O)cn(CC(=O)N3C[C@H](F)C[C@H]3C(=O)NCc3cccc(Cl)c3F)c2c1 = 36

Shift focus to the following entry.
Query: Which IC50 value belongs to CC(=O)c1cn(CC(=O)N2[C@@H]3C[C@@H]3C[C@H]2C(=O)NCc2cccc(Cl)c2F)c2nc(C(=O)O)ccc12 ?
Response: 23
